The measurements presented in this section are drawn from ChEMBL document CHEMBL4699434.

TARGET_OR_TEST_SYSTEM: Prosaposin (Homo sapiens)
Sequence (P07602 whole entry): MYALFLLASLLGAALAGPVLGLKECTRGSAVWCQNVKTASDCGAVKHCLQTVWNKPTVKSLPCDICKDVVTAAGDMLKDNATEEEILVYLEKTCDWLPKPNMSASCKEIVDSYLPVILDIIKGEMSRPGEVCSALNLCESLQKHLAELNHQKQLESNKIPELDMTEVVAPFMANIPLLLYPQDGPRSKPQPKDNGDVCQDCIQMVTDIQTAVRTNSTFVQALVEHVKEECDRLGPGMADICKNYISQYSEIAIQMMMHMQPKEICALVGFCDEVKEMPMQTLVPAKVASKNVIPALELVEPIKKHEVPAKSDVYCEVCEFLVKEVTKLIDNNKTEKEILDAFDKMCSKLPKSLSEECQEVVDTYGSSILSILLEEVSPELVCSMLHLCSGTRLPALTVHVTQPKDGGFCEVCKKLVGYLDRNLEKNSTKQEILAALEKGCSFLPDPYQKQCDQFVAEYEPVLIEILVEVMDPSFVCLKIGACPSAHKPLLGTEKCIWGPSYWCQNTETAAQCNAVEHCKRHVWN
PROTOCOL_SUMMARY: Binding affinity to human saposin D (1 to 81 residues) expressed in Escherichia coli at 25 degree C by fluorescence quenching spectroscopy
PARAMETER_MEASURED: pKd
Value format note: pKd is -log10 of concentration (mol/L); just state the number.

Given the compound CC1=C(/C=C/C(C)=C/C=C/C(C)=C/C(=O)Nc2ccc(O)cc2)C(C)(C)CCC1 [FENRETINIDE] , write its reported pKd.
5.16
